target_or_system: T1, PSMW39, human PSMA ECD (Lys44-Ala750), N-6xHis (human, UniProt Q04609 44-750)
T1 construct: Made in Expi-CHO cells; also called PSMW39.002; recombinant human ECD
T1 sequence (Q04609 other isoform, or with tags, fused parts or gaps): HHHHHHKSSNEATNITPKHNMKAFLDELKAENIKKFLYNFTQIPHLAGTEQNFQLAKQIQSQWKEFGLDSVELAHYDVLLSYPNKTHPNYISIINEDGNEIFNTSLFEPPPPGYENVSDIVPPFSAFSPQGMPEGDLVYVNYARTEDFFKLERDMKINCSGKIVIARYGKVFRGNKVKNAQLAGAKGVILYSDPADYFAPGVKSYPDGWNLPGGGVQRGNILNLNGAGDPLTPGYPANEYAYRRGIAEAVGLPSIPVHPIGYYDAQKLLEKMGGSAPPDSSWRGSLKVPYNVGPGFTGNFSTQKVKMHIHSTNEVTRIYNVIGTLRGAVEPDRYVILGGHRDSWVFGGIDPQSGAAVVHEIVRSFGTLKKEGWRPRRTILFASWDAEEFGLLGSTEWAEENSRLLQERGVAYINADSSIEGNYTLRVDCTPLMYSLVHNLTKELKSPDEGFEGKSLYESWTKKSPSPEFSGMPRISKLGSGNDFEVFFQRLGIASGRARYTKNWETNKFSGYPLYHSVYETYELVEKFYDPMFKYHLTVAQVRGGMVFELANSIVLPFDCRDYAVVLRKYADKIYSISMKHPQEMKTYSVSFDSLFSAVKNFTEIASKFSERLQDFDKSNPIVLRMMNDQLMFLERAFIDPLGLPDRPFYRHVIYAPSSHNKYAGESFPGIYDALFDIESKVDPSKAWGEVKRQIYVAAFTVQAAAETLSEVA
test_details: SPR (Biacore 8K), antibody captured on goat anti-Fc C1 chip, PSMA ECD as analyte, 1:1 Langmuir fit
experimental_readout: kon (M⁻¹ s⁻¹)
Just the number in M⁻¹ s⁻¹, nothing appended.

Using the record for PSMB1183 (antibody, human IgG1, lambda, V domains shown, huIgG1, lambda light chain) VH: QVQLQESGPGLVKSSETLSLTCTVSGGSISSYYWNWIRQPAGKGLEWIGRIYSSGNTDYNPSLKSRVTMSVDTSKNQFSLKLISVTAADTAVYYCARGRGANVGLFDYWGQGTLVTVSS VL: QSALTQPPSVSGAPGQRVTISCTGSNSNIGANYDVHWYQHLPGTAPKLLIYGNINRPLGVPDRFSGSRSGTSASLAITGLQAEDEADYYCQSYDFSLSGSVFGVGTKLTVLG , report its kon. 432000

Let us now turn to PSMB1088 (antibody, human IgG1, kappa, V domains shown, huIgG1, kappa light chain) VH: EVQLVESGGGVVQPGRSLRLSCAASGFTFSSYDMHWVRQAPGKGLEWVTVISFDGSNKYYVDSVKGRFTISRDNSKNTLYLQMNSLRAEDTAVYYCARTYYDILTGYSHYSYGMDVWGQGTTVTVSS VL: EIVMTQSPSSLSASVGDRVTITCRASQGISNYLAWYQQKPGKVPKLLIYATSTLQSGVPSRFSGSGSGTDFILTISSLQPEDVANYYCQKYNSAPFTFGPGTKVEIKR 29400

Let us now turn to PSMB1154 (antibody, human IgG1, lambda, V domains shown, huIgG1, lambda light chain) VH: EVQLVESGGGEVQPGRSLRLTCAVSGFTLSRYGMHWVRQAPGKGLEWAALISYDGSNRYYADSVKGRFTISRDNSKNTVFLQMNSLRAEDTAVYYCARERESSGWFEGYFDYWGQGTTVTVSS VL: QLVLTQPPSVSVAPGQTARITCGGNNIGSKSVHWYQQKPGQAPVLVVYDNSDRPSGIPERFSGSNSGNTATLTISRVEVGDEADYYCQVWDSSSDHVVFGGGTKLTVLG 174000
